The entries below are paired with their reported pIC50.
# TARGET SYSTEM: SARS‐CoV‐2 Nsp15 (Severe acute respiratory syndrome coronavirus 2)
# ASSAY PROTOCOL: biochemical
# Assay type: biochemical
# MEASUREMENT SETUP: L-cysteine buffer (Table S1); read-out: IC50 +L-Cys
Counter-ions that a name gives are not always drawn.
Recall that pIC50 is obtained by taking minus log10 of the concentration measured in molar.

Example compounds with recorded pIC50:
> print(dat)
                                   compound  measured.endpoint  recorded.number
1  NCCNc1ccc(NCCN)c2c1C(=O)c1ccncc1C2=O [Pixantrone (dimaleate)]              pIC50             5.36
2  COc1cc2c(NC3CCN(C(C)C)CC3)nc(N3CCC(F)(F)CC3)nc2cc1OCCCN1CCCC1 [UNC0642]              pIC50             5.49
3  Cc1cc2nc3ccc(N(C)C)cc3[s+]c2cc1N [Tolonium chloride]              pIC50             5.87

Response field pIC50 (SARS‐CoV‐2 Nsp15 (Severe acute respiratory syndrome coronavirus 2)) for item C/C(=N\NC(=N)N)c1cc(NC(=O)CCCCCCCCC(=O)Nc2cc(/C(C)=N/NC(=N)N)cc(/C(C)=N/NC(=N)N)c2)cc(/C(C)=N/NC(=N)N)c1 [Semapimod] : 6.00

Response field pIC50 (SARS‐CoV‐2 Nsp15 (Severe acute respiratory syndrome coronavirus 2)) for item CCOC(=O)CCNc1cc(N2CCc3ccccc3CC2)nc(-c2ccccn2)n1 [GSK J4 HCl] : 5.42

###

The entries below are paired with their reported IC50.
# TARGET SYSTEM: SARS‐CoV‐2 Nsp15 (Severe acute respiratory syndrome coronavirus 2, UniProt P0DTD1)
# ASSAY PROTOCOL: biochemical
# Assay type: biochemical
# MEASUREMENT SETUP: 1 mM L-cysteine buffer; confidence interval in brackets; read-out: IC50 + L‐Cys (μM) (CI in μM)
Where a name gives a salt, the structure may show the parent alone.
Numeric only. Scale: µM

> print(dat)
                                   molecule  unit.spec  recorded.number
1  COc1cc2c(NC3CCN(C(C)C)CC3)nc(C3CCCCC3)nc2cc1OCCCN1CCCC1 [UNC0638]         µM              4.8
2  Cc1cc2nc3ccc(N(C)C)cc3[s+]c2cc1N [Tolonium chloride]         µM              1.3
3  CCOC(=O)CCNc1cc(N2CCc3ccccc3CC2)nc(-c2ccccn2)n1 [GSK J4 HCl]         µM              3.8

// switching to the query molecule
// sample CC[N+](C)(CC)CCC[n+]1c(-c2ccccc2)c2cc(N)ccc2c2ccc(N)cc21.[I-].[I-] [Propidium‐iodide] , its IC50 was 9

###

The entries below are paired with their reported IC50.
# TARGET SYSTEM: SARS‐CoV‐2 Nsp15 (Severe acute respiratory syndrome coronavirus 2, UniProt P0DTD1)
# ASSAY PROTOCOL: biochemical
# MEASUREMENT SETUP: IC50 +DTT (µM)
Where a name gives a salt, the structure may show the parent alone.
Numeric only. Scale: µM

Example molecules with recorded IC50:
MOLECULE	IC50 [µM]
COc1cccc2c1C(=O)c1c(O)c3c(c(O)c1C2=O)C[C@@](O)(C(=O)CO)C[C@@H]3O[C@H]1C[C@H](N)[C@@H](O)[C@H](C)O1 [Epirubicin hydrochloride]	3.37
COc1cccc2c1C(=O)c1c(O)c3c(c(O)c1C2=O)C[C@@](O)(C(=O)CO)C[C@@H]3O[C@H]1C[C@H](N)[C@H](O)[C@H](C)O1 [Doxorubicin]	3.69

// switching to the query molecule
// sample O=C1c2c(O)ccc(O)c2C(=O)c2c(NCCNCCO)ccc(NCCNCCO)c21 [Mitoxantrone hydrochloride] , its IC50 was 1.47

###

# TARGET SYSTEM: UniProt:P0DTD1
# ASSAY PROTOCOL: biochemical
# MEASUREMENT SETUP: DTT buffer (Table S1); read-out: IC50 +DTT
MEASURED ENDPOINT: IC50 (nM)
Numeric only. Scale: nM

Example molecules with recorded IC50:
> print(dat)
                                   molecule   target.system  unit.spec  recorded.number
1  CN(C)CCNc1nc2cc(O)ccc2c2c1C(=O)c1ccccc1-2.Cl.Cl [TAS‐103 (dihydrochloride)]  UniProt:P0DTD1         nM             6550
2  CC(C)Nc1cccnc1N1CCN(C(=O)c2cc3cc(NS(C)(=O)=O)ccc3[nH]2)CC1 [Delavirdine (mesylate)]  UniProt:P0DTD1         nM             2290
3  COc1cc2c(NC3CCN(CC4CCCCC4)CC3)nc(N3CCCN(C(C)C)CC3)nc2cc1OCCCN1CCCCC1 [UNC0631]  UniProt:P0DTD1         nM             2210

// switching to the query molecule
// sample CC1(C)CCC2=C(O1)C(=O)c1ccccc1C2=O [alphaLapachone] , its IC50 was 2150

###

# TARGET SYSTEM: SARS‐CoV‐2 Nsp15 (Severe acute respiratory syndrome coronavirus 2)
# ASSAY PROTOCOL: biochemical
# Format: biochemical
# MEASUREMENT SETUP: 1 mM L-cysteine buffer; confidence interval in brackets; read-out: IC50 + L‐Cys (μM) (CI in μM)
MEASURED ENDPOINT: IC50 (µM)
Numeric only. Scale: µM

// sample CN[C@H](CC(C)C)C(=O)N[C@H]1C(=O)N[C@@H](CC(N)=O)C(=O)N[C@H]2C(=O)N[C@H]3C(=O)N[C@H](C(=O)N[C@H](C(=O)O)c4cc(O)cc(O)c4-c4cc3ccc4O)[C@H](O[C@H]3C[C@](C)(N)[C@@H](O)[C@H](C)O3)c3ccc(c(Cl)c3)Oc3cc2cc(c3O[C@@H]2O[C@H](CO)[C@@H](O)[C@H](O)[C@H]2O[C@H]2C[C@](C)(NCc3ccc(-c4ccc(Cl)cc4)cc3)[C@@H](O)[C@H](C)O2)Oc2ccc(cc2Cl)[C@H]1O.O=P(O)(O)O.O=P(O)(O)O [Oritavancin (diphosphate)] , its IC50 was 1.2

###

The entries below are paired with their reported inhibition at 10 µM.
# TARGET SYSTEM: UniProt:P0DTD1
# ASSAY PROTOCOL: biochemical
# MEASUREMENT SETUP: primary screen, 10 μM compound, 1 mM DTT buffer, normalized to 50 μM Congo red (100%) and DMSO (0%); read-out: PS inhibition % 10 μM (single point measurement)
Counter-ions that a name gives are not always drawn.
Numeric only. Scale: %

Example compounds with recorded inhibition at 10 µM:
> print(dat)
                                   compound    measured.endpoint  unit.spec  recorded.number
1  CCCCCCCCN=c1ccn(CCCCCCCCCCn2ccc(=NCCCCCCCC)cc2)cc1 [Octenidine dihydrochloride]  inhibition at 10 µM          %             98.6
2  CN(C)CCNc1nc2cc(O)ccc2c2c1C(=O)c1ccccc1-2.Cl.Cl [TAS‐103 (dihydrochloride)]  inhibition at 10 µM          %             63.4

// sample COc1cc2c(NC3CCN(C)CC3)nc(N3CCCN(C)CC3)nc2cc1OCCCN(C)C [UNC0224] , its inhibition at 10 µM was 70.6

// sample COc1cc2c(NC3CCN(C(C)C)CC3)nc(C3CCCCC3)nc2cc1OCCCN1CCCC1 [UNC0638] , its inhibition at 10 µM was 56.7

###

# TARGET SYSTEM: SARS‐CoV‐2 Nsp15 (Severe acute respiratory syndrome coronavirus 2, UniProt P0DTD1)
# ASSAY PROTOCOL: biochemical
# Format: biochemical
# MEASUREMENT SETUP: L‐cysteine buffer; read-out: IC50
MEASURED ENDPOINT: IC50 (nM)
Numeric only. Scale: nM

// sample COc1cc2c(NC3CCN(C4CCCCC4)CC3)nc(N3CCCN(C(C)C)CC3)nc2cc1OCCCN1CCCCC1 [UNC0646] , its IC50 was 730

###

# TARGET SYSTEM: UniProt P0DTD1
# ASSAY PROTOCOL: biochemical
# MEASUREMENT SETUP: IC50 + DTT (μM) (CI in μM)
Structures can show the parent of a compound that is named as a salt.
MEASURED ENDPOINT: IC50 (µM)
Numeric only. Scale: µM

// sample O=C1c2c(O)ccc(O)c2C(=O)c2c(NCCNCCO)ccc(NCCNCCO)c21 [Mitoxantrone hydrochloride] , its IC50 was 1.5

// sample COc1cccc2c1C(=O)c1c(O)c3c(c(O)c1C2=O)C[C@@](O)(C(=O)CO)C[C@@H]3O[C@H]1C[C@H](N)[C@H](O)[C@H](C)O1 [Doxorubicin] , its IC50 was 3.7

// sample COc1cccc2c1C(=O)c1c(O)c3c(c(O)c1C2=O)C[C@@](O)(C(=O)CO)C[C@@H]3O[C@H]1C[C@H](N)[C@@H](O)[C@H](C)O1 [Epirubicin hydrochloride] , its IC50 was 3.4

Reference source for all entries: paper PMC12079475
